target: T1, Anti-PSMA Fab (SEQ ID NOs: 19, 20); test: phage ELISA; biotinylated PSMA Fab on neutravidin plate, bound phage detected with anti-M13-HRP;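 further: crude clonal phage supernatants added, without a wash, to wells pretreated with PSMA antigen in blocking buffer or with blocking buffer only, then briefly incubated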
T1 construct: Biotinylated PSMA Fab captured on neutravidin coated plates in the phage ELISA; also called 006 PSMA Fab
The reader will find reported Anti-PSMA Fab signal (phage binding ELISA) values listed item by item below.
Output: the number by itself.

Record EHIWCKPDWMCSGF (tested as crude clonal phage supernatant) [Phage-2060] . Reported Anti-PSMA Fab signal (phage binding ELISA): 1.77

response.value for IGPWCIPPWMCDHR (tested as crude clonal phage supernatant) [Phage-2071] (field: Anti-PSMA Fab signal (phage binding ELISA)) = 1.76

Query SEKWCIPDWMCQVW (tested as crude clonal phage supernatant) [Phage-2068] yields Anti-PSMA Fab signal (phage binding ELISA) of 1.76

Notebook: PIKLCTPSWMCIGF (tested as crude clonal phage supernatant) [Phage-2063] , Anti-PSMA Fab signal (phage binding ELISA) read as 1.77
